test: LogD
conditions: pH 7.4; In vitro LogD
# maps each entry to its logd
Kindly provide the number alone.

compound: CNC(=O)c1c[nH]c2ncnc(N[C@H](c3ccc4c(c3)S(=O)(=O)CCC4)C(C)C)c12 (single isomer, unassigned) [ASAP-0011153]
logd: 2.7

compound: CC(C)(C)[C@H](Nc1ncnc2[nH]c(-c3cnn(CC(N)=O)c3)cc12)c1ccc2c(c1)OCCO2 (single isomer, unassigned) [ASAP-0012332]
logd: 3.1

// next entry
Prompt line: What measured logd goes with CC(C)(C)[C@H](Nc1ncnc2[nH]c(-c3cnn(CC(N)=O)c3)cc12)c1ccc2c(n1)OCCO2 (single isomer, unassigned) [ASAP-0011159] ?
Response line: 2.7

Cited source for all entries: paper doi:10.1101/2024.08.19.608619
